# method: Stability of BCNU in aqueous solution (absorbance at 232 nm)
# Format: physicochemical
# settings: 1% ethanol, 1% ethanol solution, of the order of; read-out: Decomposition of BCNU in 1% ethanol solution
reported.endpoint: half-life

Query: Fill blank: measured half-life of the compound O=NN(CCCl)C(=O)NCCCl is ____.
Result: ~4.1 h

* * *

# method: Stability of BCNU in aqueous solution (absorbance at 232 nm)
# Format: physicochemical
# settings: 1% ethanol, 37° C.; read-out: half-life of BCNU in 1% ethanol
# From the text: The decomposition of BCNU in water and in 1% aqueous ethanol was followed by measuring the characteristic BCNU absorbance maximum at 232 nm, using a Beckman DK-2A spectrophotometer. A second maximum that appeared at 190 nm and increased during decomposition was not a reliable indicator of the drug's breakdown.
reported.endpoint: half-life (h)
Reply numerically in h, unit not repeated.

Query: If you can, please state the reported half-life value of O=NN(CCCl)C(=O)NCCCl [BCNU, 1,3-bis-(2-chloroethyl)-1-nitrosourea] .
Result: 4.1
